molecular target: IGF1R in MCF-7 cells (Homo sapiens); construct: endogenous in cells; experiment: Autophosphorylation of IGF-1R in MCF7 cells after stimulation with IGF-1 (Test B), ELISA; settings: compound added one hour before IGF1 stimulation (10 minutes)
Sequence (P08069 31-1367): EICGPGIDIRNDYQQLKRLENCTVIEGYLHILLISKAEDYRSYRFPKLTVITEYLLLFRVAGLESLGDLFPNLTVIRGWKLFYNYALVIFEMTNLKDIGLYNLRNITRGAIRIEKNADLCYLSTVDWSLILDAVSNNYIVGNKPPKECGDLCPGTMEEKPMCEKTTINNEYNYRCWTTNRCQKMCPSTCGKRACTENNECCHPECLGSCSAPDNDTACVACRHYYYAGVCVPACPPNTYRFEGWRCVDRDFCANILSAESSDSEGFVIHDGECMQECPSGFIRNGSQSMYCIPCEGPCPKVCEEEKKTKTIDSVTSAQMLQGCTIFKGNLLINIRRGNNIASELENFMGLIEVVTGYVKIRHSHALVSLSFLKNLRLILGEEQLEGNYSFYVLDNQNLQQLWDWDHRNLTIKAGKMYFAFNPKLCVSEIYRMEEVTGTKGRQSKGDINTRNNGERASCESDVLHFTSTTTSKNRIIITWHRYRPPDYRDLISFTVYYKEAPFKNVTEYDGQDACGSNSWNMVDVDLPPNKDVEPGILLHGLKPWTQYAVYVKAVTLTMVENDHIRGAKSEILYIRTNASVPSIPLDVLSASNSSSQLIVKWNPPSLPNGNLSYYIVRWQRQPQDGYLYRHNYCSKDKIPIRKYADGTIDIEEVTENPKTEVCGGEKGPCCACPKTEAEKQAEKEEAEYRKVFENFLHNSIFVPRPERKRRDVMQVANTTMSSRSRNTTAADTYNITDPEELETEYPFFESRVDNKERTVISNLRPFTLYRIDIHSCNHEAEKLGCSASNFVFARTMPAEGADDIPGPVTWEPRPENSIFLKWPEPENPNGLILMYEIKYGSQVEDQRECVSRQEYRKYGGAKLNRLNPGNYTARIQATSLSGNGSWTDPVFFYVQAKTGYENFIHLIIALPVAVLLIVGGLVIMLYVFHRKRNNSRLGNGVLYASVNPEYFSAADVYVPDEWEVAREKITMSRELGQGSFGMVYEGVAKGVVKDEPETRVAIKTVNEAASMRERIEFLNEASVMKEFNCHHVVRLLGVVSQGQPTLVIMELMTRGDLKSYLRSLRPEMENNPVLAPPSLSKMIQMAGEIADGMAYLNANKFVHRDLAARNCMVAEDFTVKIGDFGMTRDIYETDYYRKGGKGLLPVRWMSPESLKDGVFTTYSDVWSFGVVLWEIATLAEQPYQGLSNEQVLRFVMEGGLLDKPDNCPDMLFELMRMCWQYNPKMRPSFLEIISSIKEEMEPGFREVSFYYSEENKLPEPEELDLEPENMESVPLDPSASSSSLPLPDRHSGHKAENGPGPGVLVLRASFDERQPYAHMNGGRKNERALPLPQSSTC
Quantity Measured: IC50

Solved entries (count: 5):
[in] Name the recorded IC50 for CC(C)(CO)c1ccc(N2C(=O)N(Cc3ccnc(Nc4cccnc4)c3)C(C)(C)C2=O)cc1 [Example 31N] .
[out] 10 to 100 nM

[in] Returns the measured IC50 for the input molecule. Input: "CC(C)(C)c1ccc(N2C(=O)N(Cc3ccnc(Nc4cccnc4)n3)C(C)(C)C2=O)cc1"
[out] < 10 nM

[in] Look at this molecule and give its reported IC50. "CC(C)(C)c1ccc(N2C(=O)N(Cc3ccnc(NC(=O)N4CCC4)c3)C(C)(C)C2=O)cc1"
[out] < 10 nM

[in] Report IC50 for CC(C)(C)c1ccc(N2C(=O)N(Cc3ccnc(NC4CC4)c3)C(C)(C)C2=O)cc1 [Example 31J] please.
[out] 10 to 100 nM

[in] Give the measured IC50 of CC(C)(C)c1ccc(N2C(=O)N(Cc3ccnc(Nc4cccc(F)c4)c3)C(C)(C)C2=O)cc1 [Example 31I] .
[out] 10 to 100 nM

Further cases:
[in] What value of measured IC50 is listed for CC(C)NCC(=O)N1CC(C)(C)c2ccc(N3C(=O)N(Cc4ccnc(Nc5cccnc5)c4)C(C)(C)C3=O)cc21 [Example 31D] ?
[out] 10 to 100 nM

[in] // IC50 lookup, key: CC(C)(C)c1ccc(N2C(=O)N(Cc3ccnc(Nc4ccc(O)nc4)c3)C(C)(C)C2=O)cc1 [Example 31M]
[out] 10 to 100 nM

These data points were gathered from patent US7935819B2.
